Data credit: the supplement of paper PMC5579334

# Tested on: STS26T
# assay notes: % inhibition of CellTiter-Glo viability at highest tested concentration (72 h), relative to DMSO and benzethonium chloride controls; higher = more inhibition
// values below are reported % inhibition
Your answer should be a plain number; it is taken to be in %.

Example compounds with recorded % inhibition:
compound	observed measurement
CCN(CC)CCCC(C)Nc1ccnc2cc(Cl)ccc12 (stereo not given) [Chloroquine aq] (max concentration tested 100000 nM)	96.2
C=CCNC1=C2C[C@@H](C)C[C@H](OC)[C@H](O)[C@@H](C)/C=C(\C)[C@H](OC(N)=O)[C@@H](OC)/C=C\C=C(/C)C(=O)NC(=CC1=O)C2=O [Tanespimycin] (max concentration tested 10000 nM)	96.1
Cn1c(Nc2ccc(C(F)(F)F)cc2)nc2cc(Oc3ccnc(-c4ncc(C(F)(F)F)[nH]4)c3)ccc21 [RAF265] (max concentration tested 1000 nM)	40.9

What measured % inhibition is associated with Clc1ccc(Nc2nnc(Cc3ccncc3)c3ccccc23)cc1 [Vatalanib] (max concentration tested 10000 nM) on STS26T?
6.33

What measured % inhibition is associated with CC[C@]1(O)C[C@H]2CN(CCc3c([nH]c4ccccc34)[C@@](C(=O)OC)(c3cc4c(cc3OC)N(C=O)[C@H]3[C@@](O)(C(=O)OC)[C@H](OC(C)=O)[C@]5(CC)C=CCN6CC[C@]43[C@@H]65)C2)C1 [Vincristine] (max concentration tested 1000 nM) on STS26T?
94.5

* * *

// values below are reported drug sensitivity score
# Tested on: YST-1
# assay notes: drug sensitivity score (DSS, CellTiter-Glo viability, 72 h) (DSS (dimensionless)); higher = more sensitive; extreme values may be limits of the assay
Respond numerically, and do not add a unit to the figure.

GET /values?readout=drug sensitivity score&item= CCN1CCN(Cc2ccc(Nc3ncc(F)c(-c4cc(F)c5nc(C)n(C(C)C)c5c4)n3)nc2)CC1 [Abemaciclib] (max concentration tested 2500 nM)
6.03

GET /values?readout=drug sensitivity score&item= CCn1c(C(=O)N(C2CC2)C2CC2)cc2c3c(ncn3C)c(Nc3cc(C)n(C)n3)nc21 (max concentration tested 10000 nM)
2.34

GET /values?readout=drug sensitivity score&item= Nc1ncn([C@H]2C[C@H](O)[C@@H](CO)O2)c(=O)n1 [Decitabine] (max concentration tested 10000 nM)
0

GET /values?readout=drug sensitivity score&item= COc1cc2/c(=N/c3ccc(Br)cc3F)nc[nH]c2cc1OCC1CCN(C)CC1 [Vandetanib] (max concentration tested 1000 nM)
0

GET /values?readout=drug sensitivity score&item= CC(C)C(=O)Nc1ccc([N+](=O)[O-])c(C(F)(F)F)c1 [Flutamide] (max concentration tested 10000 nM)
0

GET /values?readout=drug sensitivity score&item= CN(C)CCOc1ccc(/C(=C(/CCCl)c2ccccc2)c2ccccc2)cc1 [Toremifene] (max concentration tested 10000 nM)
0.84

* * *

// values below are reported % inhibition
# Tested on: YST-1
# assay notes: % inhibition of CellTiter-Glo viability at highest tested concentration (72 h), relative to DMSO and benzethonium chloride controls; higher = more inhibition
Your answer should be a plain number; it is taken to be in %.

molecule	quantity name	observed measurement
COc1cc(Nc2c(C#N)cnc3cc(OCCCN4CCN(C)CC4)c(OC)cc23)c(Cl)cc1Cl [Bosutinib] (max concentration tested 10000 nM)	% inhibition	100
CCC1=C[C@@H]2CN(C1)Cc1c([nH]c3ccccc13)[C@@](C(=O)OC)(c1cc3c(cc1OC)N(C)[C@H]1[C@@](O)(C(=O)OC)[C@H](OC(C)=O)[C@]4(CC)C=CCN5CC[C@]31[C@@H]54)C2 [Vinorelbine] (max concentration tested 10000 nM)	% inhibition	94.3
FC(F)c1nc2ccccc2n1-c1nc(N2CCOCC2)nc(N2CCOCC2)n1 [ZSTK474] (max concentration tested 10000 nM)	% inhibition	81.3
COc1cccc2c1C(=O)c1c(O)c3c(c(O)c1C2=O)C[C@@](O)(/C(CO)=N/NC(=O)CCCCCN1C(=O)C=CC1=O)C[C@@H]3O[C@H]1C[C@H](N)[C@H](O)[C@H](C)O1 [Aldoxorubicin] (max concentration tested 1000 nM)	% inhibition	101
CNC(=O)CN1CCC(Oc2cc3c(Nc4cccc(Cl)c4F)ncnc3cc2OC)CC1 [Sapitinib] (max concentration tested 1000 nM)	% inhibition	15.3

What measured % inhibition is associated with O=C(Nc1cc(Cl)cc2c1[nH]c1cnccc12)c1cccnc1 [PS-1145] (max concentration tested 25000 nM) on YST-1?
16.9

What measured % inhibition is associated with CCc1cncnc1N1CCN(Cc2nc3ccc(C(F)(F)F)cc3[nH]2)CC1 (max concentration tested 10000 nM) on YST-1?
22.3

What measured % inhibition is associated with CCCOc1ccn2c(C(C)=O)cc(-c3ccccc3S(C)(=O)=O)c2c1 [GSK2801] (max concentration tested 10000 nM) on YST-1?
0.58

What measured % inhibition is associated with CC/C(=C(\c1ccccc1)c1ccc(OCCN(C)C)cc1)c1ccccc1 [Tamoxifen] (max concentration tested 10000 nM) on YST-1?
29.6

What measured % inhibition is associated with CN(c1ccccc1CNc1nc(Nc2ccc3c(c2)CC(=O)N3)ncc1C(F)(F)F)S(C)(=O)=O (max concentration tested 10000 nM) on YST-1?
100

What measured % inhibition is associated with CCN(CC)CCN(Cc1ccc(-c2ccc(C(F)(F)F)cc2)cc1)C(=O)Cn1c(SCc2ccc(F)cc2)nc(=O)c2c1CCC2 [Darapladib] (max concentration tested 1000 nM) on YST-1?
19.5
